biological target: UniProt O60331
Sequence (O60331 whole entry): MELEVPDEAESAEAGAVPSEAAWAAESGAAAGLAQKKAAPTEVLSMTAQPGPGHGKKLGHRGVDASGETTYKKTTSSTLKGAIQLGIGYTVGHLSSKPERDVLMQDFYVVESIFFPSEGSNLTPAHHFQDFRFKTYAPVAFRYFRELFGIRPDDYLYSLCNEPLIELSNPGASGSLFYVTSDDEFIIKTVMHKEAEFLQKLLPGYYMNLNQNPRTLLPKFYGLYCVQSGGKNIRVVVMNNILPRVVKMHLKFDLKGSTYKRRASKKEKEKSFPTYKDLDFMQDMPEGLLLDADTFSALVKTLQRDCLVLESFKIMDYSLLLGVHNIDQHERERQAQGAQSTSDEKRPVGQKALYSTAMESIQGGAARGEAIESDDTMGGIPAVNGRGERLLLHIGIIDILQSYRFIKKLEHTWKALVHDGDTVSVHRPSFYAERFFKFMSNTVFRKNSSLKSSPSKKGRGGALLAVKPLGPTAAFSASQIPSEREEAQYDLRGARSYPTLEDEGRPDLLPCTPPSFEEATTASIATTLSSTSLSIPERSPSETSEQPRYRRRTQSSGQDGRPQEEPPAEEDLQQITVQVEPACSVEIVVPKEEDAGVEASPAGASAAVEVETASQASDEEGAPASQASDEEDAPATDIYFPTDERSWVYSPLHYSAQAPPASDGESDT
Readout: IC50

// IC50 value for NC(=O)c1nc(Nc2ccccc2)sc1NC(=O)C1CCCCC1 : ~41 nM

---

molecular target: PIP4K2C (Phosphatidylinositol-5-phosphate 4-kinase, type II, gamma) (Homo sapiens, UniProt Q8TBX8)
Sequence (Q8TBX8 2-421): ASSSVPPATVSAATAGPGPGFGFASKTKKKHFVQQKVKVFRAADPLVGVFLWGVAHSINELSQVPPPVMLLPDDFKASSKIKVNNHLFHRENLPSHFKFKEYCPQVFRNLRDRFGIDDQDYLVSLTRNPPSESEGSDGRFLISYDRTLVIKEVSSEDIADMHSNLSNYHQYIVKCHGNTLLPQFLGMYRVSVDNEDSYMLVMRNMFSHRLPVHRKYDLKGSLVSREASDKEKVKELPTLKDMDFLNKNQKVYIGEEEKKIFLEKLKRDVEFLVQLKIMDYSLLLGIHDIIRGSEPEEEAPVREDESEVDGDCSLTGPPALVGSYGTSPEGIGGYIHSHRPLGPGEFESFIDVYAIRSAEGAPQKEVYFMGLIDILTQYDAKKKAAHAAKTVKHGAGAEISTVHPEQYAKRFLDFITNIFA
Readout: Kd

// Kd value for NC(=O)c1nc(Nc2ccccc2)sc1NC(=O)C1CCCCC1 : < 200 nM

Data provenance: paper PMC4074510
